assay-explanation: Compound solubility in water

smiles-structure: CC(C)CCNC(=O)n1cnc2c(N3CC4(COC4)C3)cccc21
units-text: µg/mL
solubility: 22

smiles-structure: CN1CC2CCC(C1)N2c1cccc2c1ncn2C(=O)NCCCc1ccccc1
units-text: µg/mL
solubility: 25

smiles-structure: COc1cccc2c1ncn2C(=O)NCCC1CC1
units-text: µg/mL
solubility: 22.6

====

assay-explanation: Compound solubility in water
assay-endpoint: log10(solubility) (log10 of the value in µg/mL)

compound: COc1nc2cc(N3CCOCC3)ccc2n1C(=O)NCCCCc1ccccc1 [Example 133b]
log10(solubility): 0.30

compound: COc1nc2cc(-c3cncnc3)ccc2n1C(=O)NCCc1ccccc1 [Example 31b]
log10(solubility): 0.93

compound: CCCCNC(=O)n1c(OC)nc2cc(-c3cncnc3)ccc21 [Example 82b]
log10(solubility): 1.39

compound: CCCCNC(=O)n1cnc2ccc(OC(F)(F)F)cc21 [Example 70a]
log10(solubility): 0.97

compound: O=C(NCCc1ccccc1)n1cnc2cc(C(F)(F)F)ccc21 [Example 26a]
log10(solubility): -0.30

compound: CC(C)CNC(=O)n1cnc2cc(-c3cncs3)ccc21 [Example 126a]
log10(solubility): 0.78

====

target-entity: acid ceramidase (Homo sapiens)
Construct: Cell lysates overexpressing acid ceramidase were used as the enzyme source; expressed in transfected cells
assay-explanation: Acid ceramidase inhibition, biochemical fluorescent assay with cell lysates overexpressing acid ceramidase, substrate Rbm14-12
assay-setup: substrate Rbm14-12 6.3 μM, pH 4.5, 1 hr preincubation at RT
pIC50: −log10 of the molar value.
assay-endpoint: pIC50

compound: Cn1c(=O)n(C(=O)NCCc2ccccc2)c2ccc(-c3cncnc3)cc21 [Example 32b]
assay-endpoint: pIC50
recorded-value: < 6.00
//
compound: O=C(NCCc1ccccc1)n1cnc2cc(N3CCCCC3)ccc21 [Example 13a]
assay-endpoint: pIC50
recorded-value: > 6.70
//
compound: COc1cc(N2CCOCC2)cc2c1ncn2C(=O)NCCc1ccccc1
assay-endpoint: pIC50
recorded-value: > 6.70
//
compound: O=C(NCCc1ccccc1)n1cnc2ccc(-c3cccnc3)cc21 [Example 10b]
assay-endpoint: pIC50
recorded-value: > 6.70
//
compound: O=C(NCCc1ccccc1)n1cnc2nc(C(F)(F)F)ccc21 [Example 66b]
assay-endpoint: pIC50
recorded-value: > 6.70
//
compound: CC(C)CCNC(=O)n1cnc2c(N3CCOCC3)cccc21
assay-endpoint: pIC50
recorded-value: 6.00 to 6.70
//
compound: CN(C)CCOc1nc2ccccc2n1C(=O)NCCc1ccccc1
assay-endpoint: pIC50
recorded-value: > 6.70
//
compound: CCCCNC(=O)n1cnc2ccc(OC)cc21 [Example 51b]
assay-endpoint: pIC50
recorded-value: > 6.70
//
compound: COc1cc2ncn(C(=O)NCCc3ccccc3)c2cc1N1CCOCC1 [Example 38a]
assay-endpoint: pIC50
recorded-value: > 6.70
//
compound: COc1nc2ccc(-c3cncnc3)cc2n1C(=O)NCCc1ccccc1 [Example 31a]
assay-endpoint: pIC50
recorded-value: > 6.70
//
compound: CN1CCN(c2cccc3c2ncn3C(=O)NCC#Cc2cccc(F)c2)CC1
assay-endpoint: pIC50
recorded-value: > 6.70
//
compound: Cn1c(=O)n(C(=O)NCCc2ccccc2)c2ncccc21
assay-endpoint: pIC50
recorded-value: > 6.70

====

target-entity: acid ceramidase (Homo sapiens)
Construct: Cell lysates overexpressing acid ceramidase were used as the enzyme source; expressed in transfected cells
assay-explanation: Acid ceramidase inhibition, biochemical fluorescent assay with cell lysates overexpressing acid ceramidase, substrate Rbm14-12
assay-setup: substrate Rbm14-12 6.3 μM, pH 4.5, 1 hr preincubation at RT
List of IC50 values.

compound: COc1nc2cc(-c3cccnc3)cnc2n1C(=O)NCCCCc1ccccc1
IC50: < 0.2 µM
//
compound: CCOc1nc2ccccc2n1C(=O)NCCc1ccccc1
IC50: < 0.2 µM
//
compound: CN1CC2(CCN(c3cccc4c3ncn4C(=O)NCCC#Cc3ccccc3)CC2)C1
IC50: < 0.2 µM
//
compound: CCCCNC(=O)n1cnc2ccc(OC(F)(F)F)cc21 [Example 70a]
IC50: < 0.2 µM
//
compound: COc1cccc2c1nc(OC)n2C(=O)NCCC(C)C
IC50: > 1 µM
//
compound: CC(C)CCNC(=O)n1c(=O)n(C)c2ncccc21
IC50: > 1 µM
//
compound: COc1nc2c(C3CCN(C)CC3)cccc2n1C(=O)NCCc1ccccc1
IC50: 0.2 to 1 µM
//
compound: CCOc1nc2c(Cl)cccc2n1C(=O)NCCc1ccccc1
IC50: < 0.2 µM
//
compound: CN1CCC(c2cccc3c2ncn3C(=O)NCCOc2ccccc2)CC1
IC50: < 0.2 µM
//
compound: CC(C)CCNC(=O)n1cnc2c(N3CC4CC(C3)N4C)cccc21
IC50: 0.2 to 1 µM
//
compound: CCCCNC(=O)n1cnc2cc(C(F)(F)F)ccc21 [Example 49a]
IC50: < 0.2 µM
//
compound: Cc1cc(C2CCN(C)CC2)c2ncn(C(=O)NCCC(C)C)c2c1 [Example 112a]
IC50: 0.2 to 1 µM
//
compound: O=C(NCCOc1ccc(F)cc1)n1cnc2ccccc21
IC50: < 0.2 µM

====

Some compounds, each annotated with its measured log10 solubility.
assay-explanation: Compound solubility in water
assay-endpoint: log10 solubility (log10 of the value in µg/mL)

compound: COC1(C)CN(c2cccc3c2ncn3C(=O)NCCC(C)C)C1 [Example 177]
log10 solubility: 1.11
--
compound: CC(C)C#CCNC(=O)n1cnc2c(N3CCN(C)CC3)cccc21 [Example 280]
log10 solubility: 1.20
--
compound: COCCOc1nc2ccccc2n1C(=O)NCCCc1ccccc1 [Example 191]
log10 solubility: 0.60
--
compound: CC(C)CCNC(=O)n1cnc2c(N3CC4CC(C3)N4C)cccc21 [Example 160]
log10 solubility: 1.54
--
compound: O=C(NCCc1ccccc1)n1cnc2cc(Cl)c(-c3ccccn3)cc21 [Example 7b]
log10 solubility: -1.00
--
compound: CC(C)CCNC(=O)n1cnc2c(N3CCN(C)CC3)cc(Cl)cc21 [Example 112]
log10 solubility: 1.44
--
compound: CN1CC2CC1CN2C1CN(c2cccc3c2ncn3C(=O)NCCOc2ccccc2)C1 (stereo not shown) [Example 356]
log10 solubility: 1.66
--
compound: COc1ccc2ncn(C(=O)NCCc3ccccc3)c2c1 [Example 25b]
log10 solubility: 1.18
--
compound: CCCCNC(=O)n1cnc2cc(F)ccc21 [Example 67]
log10 solubility: 1.35
--
compound: CCCCNC(=O)n1cnc2cc(OC(F)(F)F)ccc21 [Example 70b]
log10 solubility: 0.98

====

target-entity: acid ceramidase (Homo sapiens)
Construct: Cell lysates overexpressing acid ceramidase were used as the enzyme source; expressed in transfected cells
assay-explanation: Acid ceramidase inhibition, biochemical fluorescent assay with cell lysates overexpressing acid ceramidase, substrate Rbm14-12
assay-setup: substrate Rbm14-12 6.3 μM, pH 4.5
Measured IC50 of individual entries
assay-endpoint: IC50

compound: CN1CC(N2CCN(c3cccc4c3ncn4C(=O)NCCOc3ccccc3)CC2)C1 [Example 296]
target-entity: acid ceramidase (Homo sapiens)
recorded-value: < 200 nM
--
compound: CN1CCN(c2cccc3c2ncn3C(=O)NCC2CCC(F)(F)CC2)CC1 [Example 256]
target-entity: acid ceramidase (Homo sapiens)
recorded-value: 200 to 1000 nM
--
compound: O=C(NCCCc1ccccc1)n1cnc2c(N3CC3C(F)(F)F)cccc21 (stereo not shown) [Example 242]
target-entity: acid ceramidase (Homo sapiens)
recorded-value: < 200 nM
--
compound: COc1nc2cc(N3CCN(C4CN(C)C4)CC3)c(F)cc2n1C(=O)NCCCc1ccccc1 [Example 319a]
target-entity: acid ceramidase (Homo sapiens)
recorded-value: 200 to 1000 nM
--
compound: CCOc1nc2ccc(N3CCOCC3)cc2n1C(=O)NCCCc1ccccc1 [Example 189b]
target-entity: acid ceramidase (Homo sapiens)
recorded-value: < 200 nM
--
compound: COc1nc2ccc(N3CCOCC3)cc2n1C(=O)NCCCc1ccc(F)cc1F [Example 224a]
target-entity: acid ceramidase (Homo sapiens)
recorded-value: < 200 nM
--
compound: COc1nc2ccc(N3CCOCC3)cc2n1C(=O)NCC1(CC2CC2)CC1 [Example 229a]
target-entity: acid ceramidase (Homo sapiens)
recorded-value: 200 to 1000 nM

====

target-entity: acid ceramidase (Homo sapiens, UniProt Q13510)
Construct: Cell lysates overexpressing acid ceramidase were used as the enzyme source; expressed in transfected cells
Sequence (Q13510 22-395): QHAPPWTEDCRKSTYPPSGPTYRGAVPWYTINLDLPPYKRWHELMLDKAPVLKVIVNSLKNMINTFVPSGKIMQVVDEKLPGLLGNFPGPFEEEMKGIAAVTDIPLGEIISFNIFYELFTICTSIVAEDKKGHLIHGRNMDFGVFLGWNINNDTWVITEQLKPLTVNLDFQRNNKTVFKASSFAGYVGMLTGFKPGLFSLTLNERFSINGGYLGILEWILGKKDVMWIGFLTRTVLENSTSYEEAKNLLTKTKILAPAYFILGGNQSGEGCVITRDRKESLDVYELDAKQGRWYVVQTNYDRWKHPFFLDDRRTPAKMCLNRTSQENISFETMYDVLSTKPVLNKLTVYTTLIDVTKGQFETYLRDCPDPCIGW
assay-explanation: Acid ceramidase inhibition, biochemical fluorescent assay with cell lysates overexpressing acid ceramidase, substrate Rbm14-12
assay-setup: substrate Rbm14-12 6.3 μM, pH 4.5, 1 hr preincubation at RT
Reported IC50 by item:
assay-endpoint: IC50

compound: O=C(NCCc1ccccc1)n1cnc2ccc(C(F)(F)F)nc21 [Example 66a]
target-entity: acid ceramidase (Homo sapiens, UniProt Q13510)
recorded-value: < 200 nM
--
compound: COc1nc2ccc(N3CCOCC3)cc2n1C(=O)NCCc1ccccc1 [28 & 29a]
target-entity: acid ceramidase (Homo sapiens, UniProt Q13510)
recorded-value: 200 to 1000 nM
--
compound: COc1nc2c(N3CCC(F)(F)CC3)cccc2n1C(=O)NCCC(C)C
target-entity: acid ceramidase (Homo sapiens, UniProt Q13510)
recorded-value: > 1000 nM
--
compound: C#Cc1ccc(CNC(=O)n2cnc3c(N4CCN(C)CC4)cccc32)cc1
target-entity: acid ceramidase (Homo sapiens, UniProt Q13510)
recorded-value: < 200 nM
--
compound: Cn1c(=O)n(C(=O)NCCc2ccccc2)c2cccnc21
target-entity: acid ceramidase (Homo sapiens, UniProt Q13510)
recorded-value: > 1000 nM
--
compound: O=C(NCCCc1ccccc1)n1cnc2c(N3CCOCC3)cccc21
target-entity: acid ceramidase (Homo sapiens, UniProt Q13510)
recorded-value: < 200 nM
--
compound: CCCCNC(=O)n1cnc2ccccc21
target-entity: acid ceramidase (Homo sapiens, UniProt Q13510)
recorded-value: < 200 nM
--
compound: CC(C)CCNC(=O)n1cnc2c(N3CCN(C4COC4)CC3)cccc21
target-entity: acid ceramidase (Homo sapiens, UniProt Q13510)
recorded-value: 200 to 1000 nM
--
compound: O=C(NCCc1ccccc1)n1cnc2ccncc21
target-entity: acid ceramidase (Homo sapiens, UniProt Q13510)
recorded-value: < 200 nM
--
compound: CCOc1nc2cccnc2n1C(=O)NCCCc1ccccc1 [Example 91b]
target-entity: acid ceramidase (Homo sapiens, UniProt Q13510)
recorded-value: < 200 nM
--
compound: O=C(NCCc1ccccc1)n1cnc2cnccc21
target-entity: acid ceramidase (Homo sapiens, UniProt Q13510)
recorded-value: < 200 nM
--
compound: CN(C)C1CN(c2cccc3c2ncn3C(=O)NCCC#Cc2ccccc2)C1
target-entity: acid ceramidase (Homo sapiens, UniProt Q13510)
recorded-value: < 200 nM
--
compound: COc1nc2ccc(N3CCOCC3)cc2n1C(=O)NCCCc1ccccc1 [Example 134a]
target-entity: acid ceramidase (Homo sapiens, UniProt Q13510)
recorded-value: < 200 nM
--
compound: O=C(NCCc1ccccc1)n1cnc2ncccc21 [Example 19a]
target-entity: acid ceramidase (Homo sapiens, UniProt Q13510)
recorded-value: < 200 nM
--
compound: O=C(NCCc1ccccc1)n1cnc2cc(F)ccc21
target-entity: acid ceramidase (Homo sapiens, UniProt Q13510)
recorded-value: < 200 nM
--
compound: O=C(NC1CCCCC1)n1cnc2c(N3CCN(C4CC4)CC3)cccc21
target-entity: acid ceramidase (Homo sapiens, UniProt Q13510)
recorded-value: > 1000 nM
--
compound: CN1CCN(c2ccc3c(c2)ncn3C(=O)NCCc2ccccc2)CC1 [Example 15a]
target-entity: acid ceramidase (Homo sapiens, UniProt Q13510)
recorded-value: < 200 nM
--
compound: COc1cc(C2CCN(C)CC2)c2ncn(C(=O)NCCCCc3ccccc3)c2c1
target-entity: acid ceramidase (Homo sapiens, UniProt Q13510)
recorded-value: < 200 nM
--
compound: COc1cccc2c1ncn2C(=O)NCCc1ccccc1
target-entity: acid ceramidase (Homo sapiens, UniProt Q13510)
recorded-value: < 200 nM
--
compound: O=C(NCCc1ccccc1)n1cnc2cc(-c3ncccn3)ccc21
target-entity: acid ceramidase (Homo sapiens, UniProt Q13510)
recorded-value: < 200 nM
--
compound: CC(C)CNC(=O)n1cnc2c(C(F)(F)F)c(-c3cncnc3)ccc21
target-entity: acid ceramidase (Homo sapiens, UniProt Q13510)
recorded-value: < 200 nM
--
compound: CCCCNC(=O)n1cnc2c(OC)cccc21
target-entity: acid ceramidase (Homo sapiens, UniProt Q13510)
recorded-value: < 200 nM
--
compound: CCCCNC(=O)n1c(OCC)nc2ccccc21
target-entity: acid ceramidase (Homo sapiens, UniProt Q13510)
recorded-value: 200 to 1000 nM
--
compound: COc1cc2ncn(C(=O)NCC(C)C)c2cc1-c1cncnc1 [Example 79b]
target-entity: acid ceramidase (Homo sapiens, UniProt Q13510)
recorded-value: < 200 nM
